Test system: MRC5
test.name: Cytotoxicity against human MRC5 cells assessed as reduction in cell viability at 100 uM measured after 48 hrs by WST-1 assay
Type: toxicity, cell-based
measurement.context: mrc5, 48 h
readout.kind: Activity

compound	experimental.result
COc1ccc(OCC(O)CN2CCN(CCO)CC2)c([N+](=O)[O-])c1 (stereo not drawn)	Non-Toxic
OCCN1CCN(CC(O)COc2cc(Cl)c(Cl)cc2Cl)CC1 (stereo not drawn)	Toxic
OCCN1CCN(CC(O)COc2ccc(Oc3ccc(F)cc3)cc2)CC1 (stereo not drawn)	Toxic
O=[N+]([O-])c1ccc(OCC(O)CN2CCN(CCO)CC2)c(F)c1 (stereo not drawn)	Non-Toxic

### Prompt Indicate its recorded Activity; the compound in question is COc1cc([N+](=O)[O-])ccc1OCC(O)CN1CCN(CCO)CC1 (stereo not drawn)
### Response Non-Toxic

### Prompt Indicate its recorded Activity; the compound in question is O=[N+]([O-])c1cc(OCC(O)CN2CCN(CCO)CC2)ccc1Cl (stereo not drawn)
### Response Non-Toxic

### Prompt Indicate its recorded Activity; the compound in question is OCCN1CCN(CC(O)COc2ccc(F)cc2)CC1 (stereo not drawn)
### Response Non-Toxic

### Prompt Indicate its recorded Activity; the compound in question is OCCN1CCN(CC(O)COc2cccc(Cl)c2)CC1 (stereo not drawn)
### Response Non-Toxic

----------
System: A549
test.name: Cytotoxicity against human A549 cells assessed as reduction in cell viability at 100 uM measured after 48 hrs by WST-1 assay
Type: toxicity, cell-based
measurement.context: a549, 48 h
readout.kind: Activity

# annotated cases, reported Activity shown
molecule	target	Activity
OCCN1CCN(CC(O)COc2cccc(Cl)c2)CC1 (stereo not drawn)	A549	Non-Toxic
COc1ccc(OCC(O)CN2CCN(CCO)CC2)c([N+](=O)[O-])c1 (stereo not drawn)	A549	Non-Toxic
OCCN1CCN(CC(O)COc2cc(Cl)c(Cl)cc2Cl)CC1 (stereo not drawn)	A549	Toxic
O=[N+]([O-])c1cc(OCC(O)CN2CCN(CCO)CC2)ccc1Cl (stereo not drawn)	A549	Non-Toxic
O=[N+]([O-])c1ccc(OCC(O)CN2CCN(CCO)CC2)c(F)c1 (stereo not drawn)	A549	Non-Toxic

### Prompt Specify Activity for OCCN1CCN(CC(O)COc2ccc(F)cc2)CC1 (stereo not drawn) , system A549.
### Response Non-Toxic

### Prompt Specify Activity for COc1cc([N+](=O)[O-])ccc1OCC(O)CN1CCN(CCO)CC1 (stereo not drawn) , system A549.
### Response Non-Toxic

### Prompt Specify Activity for OCCN1CCN(CC(O)COc2ccc(Oc3ccc(F)cc3)cc2)CC1 (stereo not drawn) , system A549.
### Response Toxic

----------
Test system: MCF7
test.name: Cytotoxicity against human MCF7 cells assessed as reduction in cell viability at 100 uM measured after 48 hrs by WST-1 assay
Format: toxicity, cell-based
measurement.context: mcf7, 48 h
readout.kind: Activity

# annotated cases, reported Activity shown
molecule	Activity
O=[N+]([O-])c1ccc(OCC(O)CN2CCN(CCO)CC2)c(F)c1 (stereo not drawn)	Non-Toxic
COc1ccc(OCC(O)CN2CCN(CCO)CC2)c([N+](=O)[O-])c1 (stereo not drawn)	Non-Toxic
OCCN1CCN(CC(O)COc2cc(Cl)c(Cl)cc2Cl)CC1 (stereo not drawn)	Toxic
OCCN1CCN(CC(O)COc2ccc(Oc3ccc(F)cc3)cc2)CC1 (stereo not drawn)	Toxic
OCCN1CCN(CC(O)COc2ccc(F)cc2)CC1 (stereo not drawn)	Non-Toxic

### Prompt Indicate its recorded Activity; the molecule in question is O=[N+]([O-])c1cc(OCC(O)CN2CCN(CCO)CC2)ccc1Cl (stereo not drawn)
### Response Non-Toxic

### Prompt Indicate its recorded Activity; the molecule in question is OCCN1CCN(CC(O)COc2cccc(Cl)c2)CC1 (stereo not drawn)
### Response Non-Toxic

### Prompt Indicate its recorded Activity; the molecule in question is COc1cc([N+](=O)[O-])ccc1OCC(O)CN1CCN(CCO)CC1 (stereo not drawn)
### Response Non-Toxic

----------
System: SAOS-2
test.name: Cytotoxicity against human SAOS-2 cells assessed as reduction in cell viability at 100 uM measured after 48 hrs by WST-1 assay
Assay type: toxicity, cell-based
measurement.context: saos-2, 48 h
readout.kind: Activity

# annotated cases, reported Activity shown
molecule	target	Activity
OCCN1CCN(CC(O)COc2ccc(Oc3ccc(F)cc3)cc2)CC1 (stereo not drawn)	SAOS-2	Toxic
O=[N+]([O-])c1ccc(OCC(O)CN2CCN(CCO)CC2)c(F)c1 (stereo not drawn)	SAOS-2	Non-Toxic
OCCN1CCN(CC(O)COc2ccc(F)cc2)CC1 (stereo not drawn)	SAOS-2	Non-Toxic
OCCN1CCN(CC(O)COc2cc(Cl)c(Cl)cc2Cl)CC1 (stereo not drawn)	SAOS-2	Toxic

### Prompt Indicate its recorded Activity; the molecule in question is COc1cc([N+](=O)[O-])ccc1OCC(O)CN1CCN(CCO)CC1 (stereo not drawn)
### Response Non-Toxic

----------
System: HT-29
test.name: Cytotoxicity against human HT-29 cells assessed as reduction in cell viability at 100 uM measured after 48 hrs by WST-1 assay
Type: toxicity, cell-based
measurement.context: ht-29, 48 h
readout.kind: Activity

# annotated cases, reported Activity shown
compound	Activity
O=[N+]([O-])c1ccc(OCC(O)CN2CCN(CCO)CC2)c(F)c1 (stereo not drawn)	Non-Toxic
OCCN1CCN(CC(O)COc2ccc(Oc3ccc(F)cc3)cc2)CC1 (stereo not drawn)	Toxic
O=[N+]([O-])c1cc(OCC(O)CN2CCN(CCO)CC2)ccc1Cl (stereo not drawn)	Non-Toxic
COc1cc([N+](=O)[O-])ccc1OCC(O)CN1CCN(CCO)CC1 (stereo not drawn)	Non-Toxic
OCCN1CCN(CC(O)COc2ccc(F)cc2)CC1 (stereo not drawn)	Non-Toxic
COc1ccc(OCC(O)CN2CCN(CCO)CC2)c([N+](=O)[O-])c1 (stereo not drawn)	Non-Toxic

### Prompt Indicate its recorded Activity; the compound in question is OCCN1CCN(CC(O)COc2cccc(Cl)c2)CC1 (stereo not drawn)
### Response Non-Toxic

### Prompt Indicate its recorded Activity; the compound in question is OCCN1CCN(CC(O)COc2cc(Cl)c(Cl)cc2Cl)CC1 (stereo not drawn)
### Response Toxic

----------
Hi there, I'd appreciate the recorded MNTC at 48 h for every entry that follows.
test.name: Cytotoxicity against human PBMC assessed as optimal non-toxic concentration required to show >=90 to 100% cell viability measured after 48 hrs by MTS assay
Assay type: toxicity, cell-based
measurement.context: read-out: Activity
Units required after the number.

### Prompt Indicate its recorded MNTC at 48 h; the molecule in question is NCCCNCCSP(=O)(O)O
### Response 10 µM

### Prompt Indicate its recorded MNTC at 48 h; the molecule in question is OCCN1CCN(CC(O)COc2cccc(Cl)c2)CC1 (configuration not stated)
### Response 500 µM

### Prompt Indicate its recorded MNTC at 48 h; the molecule in question is COc1ccc(OCC(O)CN2CCN(CCO)CC2)c([N+](=O)[O-])c1 (configuration not stated)
### Response 500 µM

### Prompt Indicate its recorded MNTC at 48 h; the molecule in question is COc1cc([N+](=O)[O-])ccc1OCC(O)CN1CCN(CCO)CC1 (configuration not stated)
### Response 500 µM

### Prompt Indicate its recorded MNTC at 48 h; the molecule in question is O=[N+]([O-])c1cc(OCC(O)CN2CCN(CCO)CC2)ccc1Cl (configuration not stated)
### Response 200 µM

### Prompt Indicate its recorded MNTC at 48 h; the molecule in question is O=[N+]([O-])c1ccc(OCC(O)CN2CCN(CCO)CC2)c(F)c1 (configuration not stated)
### Response 500 µM

### Prompt Indicate its recorded MNTC at 48 h; the molecule in question is OCCN1CCN(CC(O)COc2ccc(F)cc2)CC1 (configuration not stated)
### Response 1000 µM

----------
System: PANC-1
test.name: Cytotoxicity against human PANC-1 cells assessed as reduction in cell viability at 100 uM measured after 48 hrs by WST-1 assay
Format: toxicity, cell-based
measurement.context: panc-1, 48 h
readout.kind: Activity

# annotated cases, reported Activity shown
molecule	Activity
COc1cc([N+](=O)[O-])ccc1OCC(O)CN1CCN(CCO)CC1 (stereo not drawn)	Non-Toxic
O=[N+]([O-])c1cc(OCC(O)CN2CCN(CCO)CC2)ccc1Cl (stereo not drawn)	Non-Toxic
OCCN1CCN(CC(O)COc2ccc(Oc3ccc(F)cc3)cc2)CC1 (stereo not drawn)	Toxic
OCCN1CCN(CC(O)COc2ccc(F)cc2)CC1 (stereo not drawn)	Non-Toxic

### Prompt Specify Activity for COc1ccc(OCC(O)CN2CCN(CCO)CC2)c([N+](=O)[O-])c1 (stereo not drawn) , system PANC-1.
### Response Non-Toxic

### Prompt Specify Activity for OCCN1CCN(CC(O)COc2cccc(Cl)c2)CC1 (stereo not drawn) , system PANC-1.
### Response Non-Toxic

### Prompt Specify Activity for O=[N+]([O-])c1ccc(OCC(O)CN2CCN(CCO)CC2)c(F)c1 (stereo not drawn) , system PANC-1.
### Response Non-Toxic

### Prompt Specify Activity for OCCN1CCN(CC(O)COc2cc(Cl)c(Cl)cc2Cl)CC1 (stereo not drawn) , system PANC-1.
### Response Toxic
